target: LRRK2 wild type enzyme (Homo sapiens, UniProt Q5S007)
Sequence (Q5S007 whole entry): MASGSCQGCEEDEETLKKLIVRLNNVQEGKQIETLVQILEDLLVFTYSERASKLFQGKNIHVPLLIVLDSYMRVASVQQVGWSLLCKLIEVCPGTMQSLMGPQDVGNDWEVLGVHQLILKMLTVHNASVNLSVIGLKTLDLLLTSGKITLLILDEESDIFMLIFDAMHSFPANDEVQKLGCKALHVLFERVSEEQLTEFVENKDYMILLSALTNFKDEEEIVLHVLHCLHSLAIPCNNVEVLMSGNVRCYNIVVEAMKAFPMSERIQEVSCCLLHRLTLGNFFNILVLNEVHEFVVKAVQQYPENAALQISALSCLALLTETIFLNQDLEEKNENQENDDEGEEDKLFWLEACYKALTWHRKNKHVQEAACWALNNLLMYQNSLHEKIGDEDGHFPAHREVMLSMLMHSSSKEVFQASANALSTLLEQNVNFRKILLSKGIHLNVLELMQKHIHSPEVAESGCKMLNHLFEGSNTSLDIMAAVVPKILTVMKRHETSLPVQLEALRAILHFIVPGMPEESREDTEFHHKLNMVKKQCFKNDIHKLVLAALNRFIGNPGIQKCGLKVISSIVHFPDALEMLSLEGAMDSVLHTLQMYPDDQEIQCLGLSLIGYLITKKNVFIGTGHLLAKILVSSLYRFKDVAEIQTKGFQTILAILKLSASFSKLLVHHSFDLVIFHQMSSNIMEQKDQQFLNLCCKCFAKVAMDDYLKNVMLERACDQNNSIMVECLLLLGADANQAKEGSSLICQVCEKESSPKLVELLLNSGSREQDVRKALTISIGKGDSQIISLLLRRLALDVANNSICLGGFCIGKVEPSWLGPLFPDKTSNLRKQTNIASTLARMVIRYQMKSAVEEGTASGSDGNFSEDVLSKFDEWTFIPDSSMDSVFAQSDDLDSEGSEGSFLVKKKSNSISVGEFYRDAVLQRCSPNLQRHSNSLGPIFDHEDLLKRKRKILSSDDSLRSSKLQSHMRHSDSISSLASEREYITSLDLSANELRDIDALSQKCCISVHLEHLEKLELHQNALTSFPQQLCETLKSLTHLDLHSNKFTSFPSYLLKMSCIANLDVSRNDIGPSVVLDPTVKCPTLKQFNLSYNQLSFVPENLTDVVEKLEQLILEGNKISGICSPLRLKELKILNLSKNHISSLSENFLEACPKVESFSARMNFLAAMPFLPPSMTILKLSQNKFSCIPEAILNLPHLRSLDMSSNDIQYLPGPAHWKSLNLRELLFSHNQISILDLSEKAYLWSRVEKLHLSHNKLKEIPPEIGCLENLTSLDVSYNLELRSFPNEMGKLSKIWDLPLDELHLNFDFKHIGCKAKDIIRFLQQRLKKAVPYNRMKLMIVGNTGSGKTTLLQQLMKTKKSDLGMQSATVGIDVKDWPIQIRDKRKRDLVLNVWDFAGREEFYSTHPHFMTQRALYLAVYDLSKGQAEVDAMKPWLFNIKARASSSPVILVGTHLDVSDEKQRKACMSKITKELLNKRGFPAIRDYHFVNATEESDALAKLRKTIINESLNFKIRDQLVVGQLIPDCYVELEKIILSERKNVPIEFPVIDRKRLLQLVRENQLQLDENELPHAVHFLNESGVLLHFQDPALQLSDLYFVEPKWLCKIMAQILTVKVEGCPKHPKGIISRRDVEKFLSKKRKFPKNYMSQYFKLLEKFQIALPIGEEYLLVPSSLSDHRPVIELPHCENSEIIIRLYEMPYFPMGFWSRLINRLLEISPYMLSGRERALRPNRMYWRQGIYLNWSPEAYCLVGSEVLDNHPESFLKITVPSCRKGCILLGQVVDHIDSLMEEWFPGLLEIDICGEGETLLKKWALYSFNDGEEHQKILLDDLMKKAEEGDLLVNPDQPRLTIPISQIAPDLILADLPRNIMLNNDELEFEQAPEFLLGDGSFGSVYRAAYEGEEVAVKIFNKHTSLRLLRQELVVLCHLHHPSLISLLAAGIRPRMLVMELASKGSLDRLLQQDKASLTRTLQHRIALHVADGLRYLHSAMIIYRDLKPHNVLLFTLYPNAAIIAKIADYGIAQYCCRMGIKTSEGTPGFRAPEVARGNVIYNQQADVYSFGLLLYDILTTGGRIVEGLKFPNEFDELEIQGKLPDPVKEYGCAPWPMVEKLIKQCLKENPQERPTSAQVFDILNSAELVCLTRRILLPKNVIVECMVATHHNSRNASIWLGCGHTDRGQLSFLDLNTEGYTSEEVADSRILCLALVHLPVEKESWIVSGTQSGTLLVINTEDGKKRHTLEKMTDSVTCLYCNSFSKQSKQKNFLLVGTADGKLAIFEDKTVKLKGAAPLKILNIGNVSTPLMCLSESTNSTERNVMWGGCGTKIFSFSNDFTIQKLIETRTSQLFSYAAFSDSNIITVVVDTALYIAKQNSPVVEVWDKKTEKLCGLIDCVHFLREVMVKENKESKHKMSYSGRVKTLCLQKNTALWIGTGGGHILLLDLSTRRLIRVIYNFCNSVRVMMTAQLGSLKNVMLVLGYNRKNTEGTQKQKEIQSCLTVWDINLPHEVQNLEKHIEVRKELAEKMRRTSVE
pIC50: −log10 of the molar value.
pIC50: recorded values
READOUT LABEL: pIC50

>>> measured_value("C[C@@H]1C[C@H](n2c(Cc3cn(C4CN(S(C)(=O)=O)C4)nn3)nc3cnc4ccc(C#N)cc4c32)CCO1")
9.20
>>> measured_value("C[C@@H]1C[C@H](n2c(Cn3ccc(NS(C)(=O)=O)n3)nc3cnc4ccc(C#N)cc4c32)CCO1")
9.05
>>> measured_value("C[C@@H]1C[C@H](n2c(Cc3cc(CCS(C)(=O)=O)on3)nc3cnc4ccc(C#N)cc4c32)CCO1")
9.22
>>> measured_value("C[C@@H]1C[C@H](n2c(Cc3ccc(NS(C)(=O)=O)nc3)nc3cnc4ccc(C#N)cc4c32)CCO1")
8.40
>>> measured_value("C[C@@H]1C[C@H](n2c(Cc3noc(N4CCC(O)CC4)n3)nc3cnc4ccc(C#N)cc4c32)CCO1")
8.65
>>> measured_value("C[C@@H]1C[C@H](n2c(Cc3cn([C@H]4C[C@@H](S(C)(=O)=O)C4)nn3)nc3cnc4ccc(C#N)cc4c32)CCO1")
8.85
>>> measured_value("C[C@@H]1C[C@H](n2c(Cc3noc(C4(S(C)(=O)=O)CC4)n3)nc3cnc4ccc(C#N)cc4c32)CCO1")
9.35

* * *

target: phosphorylation at Ser935 on wild type LRRK2 overexpressed in recombinant HEK-293T cells (Homo sapiens, UniProt Q5S007); assay: pS935 LRRK2 Cell Assay (HTRF); details: LRRK2 inhibition; pS935 LRRK2 in transfected HEK293T cells, 2 hours compound incubation
Sequence (Q5S007 whole entry): as above
pIC50: −log10 of the molar value.
READOUT LABEL: pIC50

>>> measured_value("COC(=O)c1cccn(Cc2nc3cnc4ccc(C#N)cc4c3n2[C@@H]2CCO[C@H](C)C2)c1=O [Compound 19]")
6.23
>>> measured_value("C[C@@H]1C[C@H](n2c(Cc3cn(C4CN(S(C)(=O)=O)C4)nn3)nc3cnc4ccc(C#N)cc4c32)CCO1 [Compound 5]")
6.49
>>> measured_value("C[C@@H]1C[C@H](n2c(Cn3ccc(=O)c(C(=O)O)c3)nc3cnc4ccc(C#N)cc4c32)CCO1 [Compound 17]")
5.53
>>> measured_value("C[C@@H]1C[C@H](n2c(Cc3ccc(NS(C)(=O)=O)nc3)nc3cnc4ccc(C#N)cc4c32)CCO1 [Compound 6]")
5.36

* * *

biological target: phosphorylation at Ser935 on wild type LRRK2 overexpressed in recombinant HEK-293T cells (Homo sapiens); assay: pS935 LRRK2 Cell Assay (HTRF); conditions: LRRK2 inhibition; pS935 LRRK2 in transfected HEK293T cells, 2 hours compound incubation
pIC50: −log10 of the molar value.
pIC50: recorded values
READOUT LABEL: pIC50

>>> measured_value("C[C@@H]1C[C@H](n2c(Cc3noc(N4CCC(O)C4)n3)nc3cnc4ccc(C#N)cc4c32)CCO1 (mixture of isomers)")
6.09
>>> measured_value("C[C@@H]1C[C@H](n2c(Cc3cnn(C4COC4)c3)nc3cnc4ccc(C#N)cc4c32)CCO1")
6.21
>>> measured_value("C[C@@H]1C[C@H](n2c(Cc3noc(C4(S(C)(=O)=O)CC4)n3)nc3cnc4ccc(C#N)cc4c32)CCO1")
7.63
>>> measured_value("C[C@@H]1C[C@H](n2c(Cc3noc(N4CC(O)C4)n3)nc3cnc4ccc(Cl)cc4c32)CCO1")
7.21
>>> measured_value("COC(=O)c1cn(Cc2nc3cnc4ccc(C#N)cc4c3n2[C@@H]2CCO[C@H](C)C2)ccc1=O")
5.15

* * *

Parameter 'readout' = pIC50; parameter 'system' = LRRK2 wild type enzyme (Homo sapiens).
pIC50: −log10 of the molar value.
READOUT LABEL: pIC50

>>> measured_value("C[C@@H]1C[C@H](n2c(Cc3noc(C4(S(C)(=O)=O)CC4)n3)nc3cnc4ccc(Cl)cc4c32)CCO1 [Compound 10]")
9.52
>>> measured_value("C[C@@H]1C[C@H](n2c(Cc3noc(=O)[nH]3)nc3cnc4ccc(C#N)cc4c32)CCO1 [Compound 14]")
8.11
>>> measured_value("C[C@@H]1C[C@H](n2c(Cc3noc(N4CC(O)C4)n3)nc3cnc4ccc(Cl)cc4c32)CCO1 [Compound 3]")
9.10
>>> measured_value("C[C@@H]1C[C@H](n2c(Cc3noc(N4CCC(O)C4)n3)nc3cnc4ccc(C#N)cc4c32)CCO1 (mixture of isomers) [Compound 12]")
8.87
>>> measured_value("C[C@@H]1C[C@H](n2c(Cc3n[nH]c(=O)o3)nc3cnc4ccc(C#N)cc4c32)CCO1 [Compound 7]")
8.83
>>> measured_value("C[C@@H]1CC(n2c(Cn3nccc3NS(C)(=O)=O)nc3cnc4ccc(C#N)cc4c32)CCO1 (stereo in doubt) [Compound 16]")
6.17
>>> measured_value("COC(=O)c1cn(Cc2nc3cnc4ccc(C#N)cc4c3n2[C@@H]2CCO[C@H](C)C2)ccc1=O [Compound 18]")
8.58
>>> measured_value("C[C@@H]1C[C@H](n2c(Cc3noc(N4CC(O)C4)n3)nc3cnc4ccc(C#N)cc4c32)CCO1 [Compound 1]")
9.01
>>> measured_value("COC(=O)c1cccn(Cc2nc3cnc4ccc(C#N)cc4c3n2[C@@H]2CCO[C@H](C)C2)c1=O [Compound 19]")
8.10
>>> measured_value("C[C@@H]1C[C@H](n2c(Cc3noc(N4CCN(C)C(=O)C4)n3)nc3cnc4ccc(C#N)cc4c32)CCO1 [Compound 9]")
8.77
>>> measured_value("C[C@@H]1C[C@H](n2c(Cc3ccc(S(C)(=O)=O)cn3)nc3cnc4ccc(C#N)cc4c32)CCO1 [Compound 22]")
9.24
>>> measured_value("C[C@@H]1C[C@H](n2c(Cn3ccc(=O)c(C(=O)O)c3)nc3cnc4ccc(C#N)cc4c32)CCO1 [Compound 17]")
8.54
>>> measured_value("C[C@@H]1C[C@H](n2c(Cc3cnn(C4COC4)c3)nc3cnc4ccc(C#N)cc4c32)CCO1 [Compound 8]")
8.19
>>> measured_value("C[C@@H]1C[C@H](n2c(Cn3cccc(C(=O)O)c3=O)nc3cnc4ccc(C#N)cc4c32)CCO1 [Compound 2]")
6.97
>>> measured_value("C[C@@H]1C[C@H](n2c(Cc3noc(=O)[nH]3)nc3cnc4ccc(Cl)cc4c32)CCO1 [Compound 15]")
8.49

* * *

biological target: phosphorylation at Ser935 on wild type LRRK2 overexpressed in recombinant HEK-293T cells (Homo sapiens, UniProt Q5S007); construct: host or cells: HEK293T, transient transfection; assay: pS935 LRRK2 Cell Assay (HTRF); type: cell-based; settings: LRRK2 inhibition; pS935 LRRK2 in transfected HEK293T cells, 2 hours compound incubation
pIC50: −log10 of the molar value.
READOUT LABEL: pIC50

>>> measured_value("C[C@@H]1C[C@H](n2c(Cn3ccc(NS(C)(=O)=O)n3)nc3cnc4ccc(C#N)cc4c32)CCO1")
6.34
>>> measured_value("C[C@@H]1C[C@H](n2c(Cc3noc(C4(S(C)(=O)=O)CC4)n3)nc3cnc4ccc(Cl)cc4c32)CCO1")
7.99
>>> measured_value("C[C@@H]1C[C@H](n2c(Cc3noc(N4CC(O)C4)n3)nc3cnc4ccc(C#N)cc4c32)CCO1")
6.18
>>> measured_value("C[C@@H]1C[C@H](n2c(Cc3noc(N4CCN(C)C(=O)C4)n3)nc3cnc4ccc(C#N)cc4c32)CCO1")
6.21
>>> measured_value("C[C@@H]1C[C@H](n2c(Cc3noc(N4CCC(O)CC4)n3)nc3cnc4ccc(C#N)cc4c32)CCO1")
6.57
>>> measured_value("C[C@@H]1C[C@H](n2c(Cc3n[nH]c(=O)o3)nc3cnc4ccc(C#N)cc4c32)CCO1")
6.33
>>> measured_value("C[C@@H]1C[C@H](n2c(Cc3cn([C@H]4C[C@@H](S(C)(=O)=O)C4)nn3)nc3cnc4ccc(C#N)cc4c32)CCO1")
5.75
